The following binders are shown together with reported EC50 values.
- systemName: T1, human Claudin 18.2 (hCLDN18.2) (human, UniProt P56856-2 1-261)
- T1 construct: whole, on cells; also called CLDN18A2; claudin 18 splice variant 2
- experimentNotes: FACS, HEK293-hCLDN18.2 cells
- Excerpt: FACS was used to detect the binding of anti-CLDN18.2 chimeric antibodies to HEK293 cells stably transfected expressing hCLDN18.2 (HEK293-hCLDN18.2) and gastric cancer tumor tissue-derived cells naturally expressing hCLDN18.2 (PDX-hCLDN18.2).

binder	EC50, nM
ch-253C4 (antibody, V domains shown, also called chimeric antibody of clone 253C4) VH: QVQLKQSGAELVRPGASVSLSCKTSGYIFTSYWIHWVKQRSGQGLEWIGRFYPGTGTAYYNENFEGKATLTADRSSSTAYMQLSSLKSDDSAVYFCTREGYGKGNAMDYWGQGTSVTVSS VL: DIVMTQSPSSLTVTTGEKVTLSCKSSQSLLNSGNQKNYLTWYQQKSGQPPELLIYWASTRESGVPDRFTGSGSGTDFTLTVSSVQAEDLAVYYCQNDYYFPFTFGGGTKLEIK	2.27
ch-229C9 (antibody, V domains shown, also called chimeric antibody of clone 229C9) VH: DVQLQESGPDLVKPSQSLSLICTVTGYSITSGYSWHWIRQFPGNKLEWMGYIHYSGGTNYNPSLKSRISFTRDTSKNQFFLQLNSVTTEDTATYYCARLERGNSFAYWGQGTLVTVSA VL: DIVMTQSPSSLTVTAGEKVTMSCKSTQSLLNSGNQKNYLTWYQQKPGQPPKLLIYWASTRESGVPDRFTGSGSGTDFTLTISSLQAEDLAVYYCQNDYFYPFTFGSGTKLEIK	2.46
ch-239E9 (antibody, V domains shown, also called chimeric antibody of clone 239E9) VH: QVQLQQSGPELVRPGVSVKISCKGSSYTFTDYTMHWVKQSHAKSLEWIGFIGVYYGNTNYNQKFKGKATMTVDKSSSTAYMELARLTSEDSAVYYCARIGRGNAMDYWGQGTSVTVSS VL: DIVMTQSPSSLTVTAGEKVTMSCKSSQSLLNSGNQKNYLTWYQQKPGQPPKLLIYWASTRESGVPDRFTGSGSGTDFTLTISSVQAEDLAVYNCQNAYSYPFTFGSGTKLEIK	2.31
ch-251H11 (antibody, V domains shown, also called chimeric antibody of clone 251H11) VH: QVQLKQSGAELVRPGASVKLSCKTSGYTFTTFWIHWIKQRSGQGLEWIAKIYPGTGYTYYNEKFKGKATLTADKSSSAAYMQLSSLKSEDSAVYFCAREGYGKGNAVDFWGQGSSVTVSS VL: DIVMTQSPSSLTVTAGEKVTMSCKSSQSLFNSGNQKNYLTWYQQKPGQPPKLLIYWASTRESGVPDRFTGSGSGTDFTLTIDSVQAEDLAVYYCQNDYTYPSTFGGGTNLEIK	2.72
ch-299B2 (antibody, V domains shown, also called chimeric antibody of clone 299B2) VH: QVQLKQSGPELVRPGASVKLSCKTSGYIFTNYWIHWVKQRSGQGLEWVVRIYPGTGNTYYNEKFTGKATLTADKSSSTAYMQLSSLKYEDSAVYFCSREGYGKGNSMDYWGQGTSVTVSS VL: DIVMTQSPSSLTVTAGEKVTMNCKSSQSLLNSGNQKNYLTWYQQKPGQPPKLLFYWASTRESGVPDRFTGSGSGTDFTLTISSVQAEDLAVYHCQNAYYYPYTFGGGTKLEMK	1.52
